target: human CB1 receptor (Homo sapiens, UniProt P21554); assay: [35S]GTPγS binding assay, CB1 receptor agonistic activity
Sequence (P21554 whole entry): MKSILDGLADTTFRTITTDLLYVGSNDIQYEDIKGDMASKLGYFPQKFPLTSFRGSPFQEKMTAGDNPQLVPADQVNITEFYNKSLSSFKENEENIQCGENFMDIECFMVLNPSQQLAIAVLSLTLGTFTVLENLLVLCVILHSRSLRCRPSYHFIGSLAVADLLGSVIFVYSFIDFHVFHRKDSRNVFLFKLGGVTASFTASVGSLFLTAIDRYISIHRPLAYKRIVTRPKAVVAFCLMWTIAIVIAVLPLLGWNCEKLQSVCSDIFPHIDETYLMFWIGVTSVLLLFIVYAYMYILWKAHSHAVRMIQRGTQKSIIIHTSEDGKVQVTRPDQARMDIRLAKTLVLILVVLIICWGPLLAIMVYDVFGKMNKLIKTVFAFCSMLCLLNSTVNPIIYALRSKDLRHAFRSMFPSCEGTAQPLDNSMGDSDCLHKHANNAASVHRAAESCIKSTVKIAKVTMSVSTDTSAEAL

compound	limit.qualifier	EC50, nM
COC(=O)[C@H](NC(=O)c1cn(Cc2ccc(F)cc2)c2ccccc12)C(C)(C)C [(R)MDMB-FUBICA]	>	100000
CCOC(=O)[C@H](NC(=O)c1nn(Cc2ccc(F)cc2)c2ccccc12)C(C)C [(R)EMB-FUBINACA]	=	30.7
CC(C)[C@H](NC(=O)c1nn(Cc2ccccc2F)c2ccccc12)C(N)=O [(S)AB-FUBINACA 2-fluorobenzyl isomer]	=	2.92
COC(=O)[C@@H](NC(=O)c1cn(Cc2ccc(F)cc2)c2ccccc12)C(C)(C)C [(S)MDMB-FUBICA]	=	9.72
CCOC(=O)[C@H](NC(=O)c1nn(CCCCCF)c2ccccc12)C(C)C [(R)5F-EMB-PINACA]	=	35.9
CCOC(=O)[C@@H](NC(=O)c1nn(Cc2ccc(F)cc2)c2ccccc12)C(C)C [(S)EMB-FUBINACA]	=	0.458
CC(C)[C@@H](NC(=O)c1nn(Cc2ccccc2F)c2ccccc12)C(N)=O [(R)AB-FUBINACA 2-fluorobenzyl isomer]	=	14.1
